The measurements presented in this section are drawn from paper PMC3210410.

- Assay System: MMP-13 (Homo sapiens)
- Experimental Details: FRET triple-helical peptide
- Type: biochemical
- Details: 40 μM compound, fTHP-15 substrate, triplicate, SD <10% (Table 2)
Readout Type: MMP-13 % Inhibition

Cc1cccc(CSc2nc(O)c3c(n2)CCCC3)c1 inactive
O=c1[nH]c(SCc2coc(-c3cccc(Cl)c3)n2)nc2c1CCC2 inactive
O=C(CSc1nc2c(c(=O)[nH]1)CCC2)c1ccccc1 inactive
